method_summary: inhibition of PAO1 biofilm formation – strain PAO1, LB-PBS medium, absorbance 600 nm, primary screen (AID 1176); note: test concentration not given here
experimental_setup: P. aeruginosa PAO1 growth/biofilm, A600, 12 h; higher = more signal
quantity: z-score
Output spec: single numeric token, no unit.

compound | z-score
CCCCCN1CC=CC23O[C@@H]4C=CCCOC(=O)C4[C@H]2C(=O)N(CCCCCCO)[C@@H]3C1=O (some centres not stated) | 0.55
COC(=O)[C@@]1(Cc2ccc(F)cc2)[C@H]2c3cc(C(=O)N4CCCC4)n(CCc4c[nH]c5ccccc45)c3C[C@H]2CN1C(=O)c1ccccc1 | 0.343
Cc1ccc(S[C@]2(C(=O)NC(C)C)CC(=O)N(Cc3cc(C(F)(F)F)cc(C(F)(F)F)c3)[C@@H]2c2ccc(CO)cc2)cc1 | 0.31

# input Recorded z-score for COCCCNC(=O)[C@@]1(Sc2ccc(C)cc2)CC(=O)N(C2Cc3ccccc3C2)[C@@H]1c1ccc(CO)cc1 , please?
# output 0.779

# input Give its z-score value. Item: C=C(/C(=C/C[C@H](OC(=O)c1ccncc1)c1ccc(CO)o1)c1cnc2ccccc2c1)C(C)C
# output 1.16

# input Would you mind telling me what z-score value was observed for CC(C)NC(=O)[C@@]1(c2ccc([N+](=O)[O-])cc2)CC(=O)N(C2CCCCC2)[C@@H]1c1ccc(CO)cc1 ?
# output -0.0249

# input Need z-score, item Cc1ccc(S[C@]2(C(=O)NCC(F)(F)F)CC(=O)N(Cc3cc(C(F)(F)F)cc(C(F)(F)F)c3)[C@@H]2c2ccc(CO)cc2)cc1
# output 0.214

====

Tested on: Neuregulin-1 EGF-like domain
method_summary: small molecules binding NRG1 EGF domain – biochemical, small-molecule microarray, 635 nm fluorescence, primary screen (AID 1081);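 note: binding of the protein to compounds printed on small-molecule microarray slides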
experimental_setup: higher = more signal
Items are presented alongside their recorded composite z-score.
I only need the number, thanks.

# annotated cases, reported composite z-score shown
molecule | composite z-score
CCC#CCN(Cc1ccccc1Br)[C@H](/C=C/C1CC1)[C@@H](O)Cc1ccccc1 | -0.33
COc1ccc(C#Cc2ccc3c(c2)[C@]2(C(=O)N3)[C@H](c3ccc(OCCO)cc3)N3[C@H](c4ccccc4)[C@H](c4ccccc4)OC(=O)[C@H]3[C@@H]2C(=O)NC[C@H](O)c2ccccc2)cc1 | 1.13
C=CC[C@@]1(C(=O)NCCCOC)N=C(c2ccc(OCCCO)cc2)O[C@@H]1c1ccccc1 | 1.15
CCOC(=O)C[C@H]1[C@H](OC(=O)Cc2ccc3c(c2)OCO3)[C@@H](NC(=O)c2ccc3ccccc3n2)c2cc(OCCCO)ccc2N1C(=O)c1ccc2ccccc2n1 | 1.01
CC(C)C(O)C1C=CC2C(=O)N(c3ccccc3)C(=O)C2N1Nc1ccccc1 (configuration not stated) | 1.39

# input Could you tell me which composite z-score is on file for NC(=O)[C@@]1(Cc2ccccc2)COC(c2ccc(OCCCO)cc2)=N1 ?
# output 1.16

# input Quick one: composite z-score for CCCCCN1CC=CC23O[C@@H]4/C=C\CCC(C)OC(=O)C4[C@H]2C(=O)N(C(CO)C(C)C)[C@@H]3C1=O (some centres not stated) ?
# output 1.38

====

Tested on: wheat germ agglutinin (Triticum aestivum), Alexa647-labelled
method_summary: Alexa647-WGA lectin binding to printed small molecules – biochemical, small-molecule microarray, 635/667 nm fluorescence, artefact control for SMM control-protein annotation, profiling panel (AID 1140);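 note: score merges 667 nm feature emission with signal to noise over triplicate slides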
experimental_setup: WGA-A647 binding, 635 nm fluorescence, higher = more signal
quantity: composite z-score
Field format: numeric only.

Would you please look over these solved cases?
compound | composite z-score
CC(C)C(CO)N1C(=O)[C@@H]2C3C(=O)OCCC/C=C\[C@H]3OC23C=CCN(c2ccc4ccccc4c2)C(=O)[C@@H]13 (some centres not stated) | 0.562
C=C[C@@H](OC)[C@H](OC(=O)Nc1ccc(OC)cc1)c1ccc(O)c(F)c1 | -0.251

# input What value of composite z-score has been recorded for this entry: C=CCN1C(=O)[C@]2(CCC(=O)OC(C)(C)C)N=C(c3ccc(OCCCO)cc3)O[C@@H]2c2ccccc21
# output 0.27

# input What composite z-score value was documented for this compound, C=C(COC)C(=O)CC[C@@H](OC(C)=O)c1cccc(OCCO)c1 ?
# output 0.0226

# input I would be grateful if you could share the reported composite z-score for CCOC(=O)C[C@H]1[C@H](OC(=O)c2ccccc2-c2ccccc2)[C@@H](NC(=O)c2ccc3ccccc3n2)c2cc(OCCCO)ccc2N1C(=O)Cc1ccc(OC)cc1 .
# output 0.509

# input For the compound CCOC(=O)C[C@H]1[C@H](OC(=O)Cc2ccc3c(c2)OCO3)[C@@H](NC(=O)c2ccc3ccccc3n2)c2cc(OCCCO)ccc2N1C(=O)c1ccc2ccccc2n1 , what composite z-score is on record?
# output 0.754

# input What value of composite z-score has been reported for the following compound? COC(=O)c1c(CC[C@@H](CO)NC(=O)N2CCC[C@H]2Cn2cc(C3(O)CCCCC3)nn2)oc(C(C)=O)c1C(=O)OC
# output -0.0239
